Source listed as patent US20080113383A1.

- testedOn: EGLN3
- testDescription: cell-based or functional assay
Where no end group is shown, it is not given here. [ ]: non-standard residue; d: D form. ΔPro = O=C(O)[C@@H]1C=CCN1; Aze = O=C(O)[C@@H]1CCN1
readoutLabel: Activity (%)
Please don't drop the unit; write it after the number.

Example entries and their recorded answers appear below.
# binder, Activity (%)
records = [
    ("DTDLDIEAVA[Aze]YIPADDDFQ [DTDLDIEAVA8YIPADDDFQ]", "18.8%"),
    ("DTDLDVEAIA[Aze]YIPADDDFQ [DTDLDVEAIA8YIPADDDFQ]", "14.8%"),
    ("DTDLDLEMLAPYIPMDDDFQ [Control peptide DTD20, DTDLDLEMLApYIPMDDDFQ]", "119%"),
    ("DTDLDTEAVA[Aze]YIPADDDFQ [DTDLDTEAVA8YIPADDDFQ]", "10.3%"),
    ("DTDLDAEAIA[Aze]YIPADDDFQ [DTDLDAEAIA8YIPADDDFQ]", "9.72%"),
]

Request: Report Activity (%) for DTDLDAEAVA[Aze]YIPADDDFQ [DTDLDAEAVA8YIPADDDFQ] please.
Result: 17.2%

Request: Report Activity (%) for DTDLDLEALA[ΔPro]YIPADDDFQ [DTDLDLEALA4YIPADDDFQ] please.
Result: 74.4%

Request: Report Activity (%) for DTDLDVEAFA[Aze]YIPADDDFQ [DTDLDVEAFA8YIPADDDFQ] please.
Result: 24.5%

Request: Report Activity (%) for DTDLDIEAIA[Aze]YIPADDDFQ [DTDLDIEAIA8YIPADDDFQ] please.
Result: 31.2%
